Assay: Unbound fraction in serum of healthy human subjects (6 subjects) at 500 mg, iv by Sarcina lutea based bioassay
Type: ADME, organism-based
ATTRIBUTE MEASURED: fraction unbound
Simply state the number, no unit and no words.

Tell me the measured fraction unbound of CC[C@H]1OC(=O)[C@H](C)[C@@H](O[C@H]2C[C@@](C)(OC)[C@@H](O)[C@H](C)O2)[C@H](C)[C@@H](O[C@@H]2O[C@H](C)C[C@H](N(C)C)[C@H]2O)[C@](C)(O)C[C@@H](C)C(=O)[C@H](C)[C@@H](O)[C@]1(C)O.O=C(O)[C@H](O)[C@@H](O)[C@H](O[C@@H]1O[C@H](CO)[C@@H](O)[C@@H](O)[C@H]1O)[C@H](O)CO , please.
0.305

====

Assay: Volume of distribution at steady state in patient with severe cirrhosis (5 patients) at 500 mg, iv by Sarcina lutea based bioassay
Type: ADME, organism-based
Conditions: human, in vivo, read-out: Vdss
ATTRIBUTE MEASURED: Vd (L)
Give just the numeric value; L need not be written.

Tell me the measured Vd of CC[C@H]1OC(=O)[C@H](C)[C@@H](O[C@H]2C[C@@](C)(OC)[C@@H](O)[C@H](C)O2)[C@H](C)[C@@H](O[C@@H]2O[C@H](C)C[C@H](N(C)C)[C@H]2O)[C@](C)(O)C[C@@H](C)C(=O)[C@H](C)[C@@H](O)[C@]1(C)O.O=C(O)[C@H](O)[C@@H](O)[C@H](O[C@@H]1O[C@H](CO)[C@@H](O)[C@@H](O)[C@H]1O)[C@H](O)CO , please.
85.5

====

Test: Volume of distribution at steady state in healthy human subjects (6 subjects) at 500 mg, iv by Sarcina lutea based bioassay
Assay type: ADME, organism-based
Conditions: in vivo, read-out: Vdss
ATTRIBUTE MEASURED: Vd (L)
Give just the numeric value; L need not be written.

Tell me the measured Vd of CC[C@H]1OC(=O)[C@H](C)[C@@H](O[C@H]2C[C@@](C)(OC)[C@@H](O)[C@H](C)O2)[C@H](C)[C@@H](O[C@@H]2O[C@H](C)C[C@H](N(C)C)[C@H]2O)[C@](C)(O)C[C@@H](C)C(=O)[C@H](C)[C@@H](O)[C@]1(C)O.O=C(O)[C@H](O)[C@@H](O)[C@H](O[C@@H]1O[C@H](CO)[C@@H](O)[C@@H](O)[C@H]1O)[C@H](O)CO , please.
57.6
